- System: GB4
- Method description: qHTS profiling for inhibitors of Plasmodium falciparum proliferation (AID 504749); further: nearly all actives have a fitted effect of over 60% in size
- Test context: P. falciparum in erythrocytes, SYBR Green DNA, 72 h; series mostly up to 28.7 µM
Results filed as inconclusive are left out. Active and inactive are the calls of the source. The call rests on the fitted dose curve; in most records, active means well fitted inhibition curve with a large enough effect; inconclusive means small, poorly fitted or top-dose-only effect; inactive means flat fitted curve, though single readings scatter.
Answer with one of the outcomes given here: yes = active, no = inactive

Recorded test call requested for COc1ccc(/C=N/NC(=O)c2ccncc2)c(C(=O)O)c1OC
no

How was CCOC(=O)Cc1ccc(-c2ccccc2)cc1 classified in this test?
no

Which outcome was assigned to CS(=O)(=O)OCC(O)C(O)COS(C)(=O)=O (configuration not stated) in this test?
no

Outcome logged for Nc1ncnc2c1ncn2CCOCP(=O)(O)O in this assay:
no

Called result for COC(=O)CC[C@H](N)C(=O)O
no

Could you kindly confirm the outcome this assay logged for CC/C=C\C/C=C\C/C=C\C/C=C\C/C=C\CCCC(=O)O ?
no

How was C=CCCCCCCCCC(=O)OC classified in this test?
no

Test call for this compound, please: CO[C@H]1C[C@@H]2CC[C@@H](C)[C@@](O)(O2)C(=O)C(=O)N2CCCC[C@H]2C(=O)O[C@H]([C@H](C)C[C@@H]2CC[C@@H](OC(=O)C(C)(CO)CO)[C@H](OC)C2)CC(=O)[C@H](C)/C=C(\C)[C@@H](O)[C@@H](OC)C(=O)[C@H](C)C[C@H](C)/C=C/C=C/C=C/1C
no

Hi, do you know how COc1ccc(C(=O)CCC(=O)O)c2ccccc12 came out in this test?
no

Write down the call the test reported for this compound. Item: CCCCCCOC(=O)c1cccnc1
no

Can you look up the reported call for COc1ccccc1N1CCN(CCCC(=O)c2ccc(F)cc2)CC1 for me?
no

----------
- Test system: CP329
- Method description: qHTS profiling for inhibitors of Plasmodium falciparum proliferation (AID 504749); further: nearly all actives have a fitted effect of over 60% in size
- Test context: P. falciparum in erythrocytes, SYBR Green DNA, 72 h; series mostly up to 28.7 µM
Inconclusive results are not listed. Calls of active or inactive are those of the source. Calls come from the whole dose curve; as a rule, active = well fitted inhibition curve with a large enough effect; inconclusive = small, poorly fitted or top-dose-only effect; inactive = flat fitted curve, though single readings scatter.
// allowed return values: active, inactive

Solved cases (3 shown):
Please indicate how the test categorized CCOC(=O)[C@@H](N)CS .
inactive

Could you kindly confirm the outcome this assay logged for NC(=S)N=Nc1ccc(NN=C(N)N)cc1 ?
active

# outcome recorded in this test, key = C[Se]CC[C@H](N)C(=O)O
inactive

Note: attention shifts to another entry.
Answer briefly: the call reported for CC1C(=O)CC2C3(C)CCC2(C(C)C(=O)O)C(=O)C13 (centres undefined) in this assay.
inactive

----------
- Test system: CP305
- Method description: qHTS profiling for inhibitors of Plasmodium falciparum proliferation (AID 504749); further: nearly all actives have a fitted effect of over 60% in size
- Test context: P. falciparum in erythrocytes, SYBR Green DNA, 72 h; series mostly up to 28.7 µM
Results filed as inconclusive are left out. Calls of active or inactive are those of the source. The call rests on the fitted dose curve; in most records, active means well fitted inhibition curve with a large enough effect; inconclusive means small, poorly fitted or top-dose-only effect; inactive means flat fitted curve, though single readings scatter.
Hi there, use one of these labels in your reply, thanks! active, inactive

Answered examples (10):
What is the recorded call for this molecule in the test? CCCCO
inactive

Test call for this molecule, please: COc1cc(NCCCC(C)N)c2ncccc2c1 (stereo unspecified)
active

Just curious, what result did CN1C(=O)OC(C)(C)C1=O get here?
inactive

Per the records of this test, what outcome belongs to ClC(Cl)Cl ?
inactive

Assay result, entry Cc1ccc(S(=O)(=O)NCl)cc1 — outcome?
inactive

Tell me the assay call for CC(C)=CCC/C(C)=C/CC/C(C)=C/CC/C=C(\C)CC/C=C(\C)CCC=C(C)C please.
inactive

Tell me the assay call for CC1CC(OC(=O)C(O)c2ccccc2)CC(C)(C)C1 (stereo unspecified) please.
inactive

State the result this test recorded for CCC(C(=O)NC(N)=O)c1ccccc1 (stereo unspecified) .
inactive

# lookup: test call for O=C(O)[C@H]1C(=CCO)O[C@H]2CC(=O)N12
inactive

Hi team, can someone confirm the assay call for O=C1NCCN1c1ncc([N+](=O)[O-])s1 ?
inactive

---
Call for entry CC/C=C\C/C=C\C/C=C\C/C=C\C/C=C\C/C=C\CCC(=O)O :
inactive

// outcome(item) with item = CCCCCCCCCCCCOCCCN
inactive

What was the test verdict on CC(=O)N=c1sc(S(N)(=O)=O)nn1C ?
inactive

In this assay, the call recorded for Cn1c(=O)c2c(ncn2CCOC(=O)C(C)(C)Oc2ccc(Cl)cc2)n(C)c1=O was what?
inactive

// outcome(item) with item = O=P(O)(O)CP(=O)(O)O
inactive

Check the results log: what was the call for Nc1ccc(N=Nc2ccccc2)c(N)n1 ?
inactive

----------
- Method description: qHTS Assay for Lipid Storage Modulators (AID 1519)
- Test context: Drosophila S3 cells, BODIPY lipid droplet/cell ratio, laser cytometry; measured here: lipid channel max response; cells loaded with oleic acid
Inconclusive results are not listed.
Label key: MET means max response under 10%; NOT MET means max response of 10% or more.

Below are worked cases with known answers.
State whether 10% exceeds max response recorded for C=CC(C)(O)CC/C=C(\C)CCC=C(C)C (configuration not stated) .
MET

Please let me know if NCC(O)CC(=O)O (configuration not stated) shows max response below 10%.
NOT MET

Take the molecule CN1C(=O)OC(C)(C)C1=O and say whether its max response is less than 10%.
NOT MET

Decide: max response of CC1CCCC(C)N1NC(=O)c1ccc(Cl)c(S(N)(=O)=O)c1 (configuration not stated) strictly below 10%?
NOT MET

Determine whether this molecule shows max response lower than 10% (ties excluded): CC1CCC(NC(=O)N(CCCl)N=O)CC1 (configuration not stated)
NOT MET

Next:
Determine if O=C(O)Cc1cc(I)c(Oc2ccc(O)c(I)c2)c(I)c1 shows max response strictly lower than 10%.
MET

Hello, I'm reviewing records and need to know if max response of CCCOc1cc(N)ccc1C(=O)OCCN(CC)CC is below 10%. Could you check?
MET

----------
- Method description: qHTS assay to identify small molecule inhibitors of chordoma cells - UCH-2 (AID 1259356)
- Test context: UCH-2 chordoma viability, CellTiter-Glo ATP luminescence, 48 h; series mostly up to 46.1 µM
Inconclusive results are not listed. Activity calls are given as the source filed them. Calls come from the whole dose curve; as a rule, active = well fitted cell-killing curve with a large enough effect; inconclusive = small, poorly fitted or top-dose-only effect; inactive = flat fitted curve, though single readings scatter.
Just give me one of these, please: 1 = active, -1 = inactive

Name the outcome recorded for O=C(OC[C@H]1O[C@@H](OC(=O)c2cc(O)c(O)c(OC(=O)c3cc(O)c(O)c(O)c3)c2)[C@H](OC(=O)c2cc(O)c(O)c(OC(=O)c3cc(O)c(O)c(O)c3)c2)[C@@H](OC(=O)c2cc(O)c(O)c(OC(=O)c3cc(O)c(O)c(O)c3)c2)[C@@H]1OC(=O)c1cc(O)c(O)c(OC(=O)c2cc(O)c(O)c(O)c2)c1)c1cc(O)c(O)c(OC(=O)c2cc(O)c(O)c(O)c2)c1 in the assay.
1

Identify the outcome logged in this assay for the compound shown: OB(O)O
-1

What is the recorded call for this compound in the test? COc1ccc2cc([C@H](C)CO)ccc2c1
-1

How was OC1OC[C@@H](O)[C@H](O)[C@@H]1O (stereo partly drawn) classified in this test?
-1

Kindly provide the recorded test outcome for the following compound: O=C1[O][Bi][O]c2ccccc21
-1

Others:
Identify the outcome logged in this assay for the compound shown: O[C@@H]([C@H](O)[C@H](O)CBr)[C@H](O)CBr
-1

Each compound tested received a call. Report the one for Cc1cc(C)c(NC(=O)C[C@H](CC(=O)O)c2cccc3ccccc23)c(C(=O)N2CCC3(CCCC3)CC2)c1 .
-1

Write down the call the test reported for this compound. Item: CN=C1C=CC(=C(c2ccc(N(C)C)cc2)c2ccc(N(C)C)cc2)C=C1
1

----------
- Measurement target: Peroxisome proliferator-activated receptor gamma (Homo sapiens) (UniProt P37231)
- Sequence (P37231 whole entry, looked up): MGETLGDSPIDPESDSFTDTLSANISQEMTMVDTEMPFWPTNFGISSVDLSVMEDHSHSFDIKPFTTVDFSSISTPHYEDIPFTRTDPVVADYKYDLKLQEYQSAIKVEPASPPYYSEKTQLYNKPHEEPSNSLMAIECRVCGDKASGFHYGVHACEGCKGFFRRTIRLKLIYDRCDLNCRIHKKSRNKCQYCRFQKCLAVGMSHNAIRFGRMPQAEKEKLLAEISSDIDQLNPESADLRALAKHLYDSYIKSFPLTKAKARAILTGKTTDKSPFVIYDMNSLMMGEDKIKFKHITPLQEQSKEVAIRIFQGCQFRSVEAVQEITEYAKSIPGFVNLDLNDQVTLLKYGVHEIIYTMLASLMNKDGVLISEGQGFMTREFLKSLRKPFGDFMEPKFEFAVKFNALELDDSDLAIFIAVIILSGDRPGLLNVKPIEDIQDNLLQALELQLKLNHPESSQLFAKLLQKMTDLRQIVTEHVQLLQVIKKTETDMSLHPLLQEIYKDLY
- Method description: qHTS assay for small molecule antagonists of peroxisome proliferator-activated receptor gamma signaling (AID 588537);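 further: reporter cells co-stimulated with 50 nM rosiglitazone agonist during compound treatment; % of control where 0% means no effect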
- Test context: HEK293 PPARg-UAS-bla, beta-lactamase ratio, antagonist mode; series mostly up to 76.8 µM
Inconclusive results are not listed. Calls of active or inactive are those of the source. Calls follow the shape of the dose curve; as a rule, active = well fitted inhibition curve with a large enough effect in the signal ratio, with a control signal flat (not every such curve was filed as active); inconclusive = small, poorly fitted or top-dose-only effect, or effect the other way, or a change in a side signal; inactive = flat fitted curve, though single readings scatter; the % refers to the signal ratio.
Readout type: outcome

Reference set (5 entries):
Given item O=P(O)(O)O , the value recorded as its outcome is inactive

The compound listed as O=C(OCc1ccccc1)c1ccc(O)cc1 has a reported outcome of inactive

Form field outcome, entry CC[C@H]1OC(=O)[C@H](C)[C@@H](O[C@H]2C[C@@](C)(OC)[C@@H](O)[C@H](C)O2)[C@H](C)[C@@H](O[C@@H]2O[C@H](C)C[C@H](N(C)C)[C@H]2O)[C@](C)(O)C[C@@H](C)CN(C)[C@H](C)[C@@H](O)[C@]1(C)O : inactive

Lab note: Nc1ccc(N=Nc2ccccc2)c(N)n1 gave outcome of inactive

Lab note: CC(C)CCC[C@@H](C)[C@H]1CC[C@H]2[C@@H]3CC=C4C[C@@H](O)CC[C@]4(C)[C@H]3CC[C@]12C gave outcome of inactive

Batch request: outcome for each of the following compounds.
1. OCCOCCOCCO
2. C[Si](C)(C)O[Si](C)(C)C

inactive
inactive
